assay: AUC (0 to 24 hrs) in Beagle dog at 300 mg/kg, po; format: ADME, organism-based, Canis lupus familiaris; design: time < 24 hr, dose 300 mg/kg, route oral; settings: in vivo
reportedEndpoint: AUC(0-t) at 24 h (µg·h/mL)
One number for each entry, in µg·h/mL.

**Query** Could you share which AUC(0-t) at 24 h value was measured for `CC#C[C@@H](CC(=O)O)c1ccc(OCc2ccc3nc(-c4c(C)cccc4C)nn3c2)cc1` ?
**Result** 4010

---

target: Free fatty acid receptor 1 (Homo sapiens); experiment: Agonist activity at human GPR40 receptor expressed in HEK293 cells assessed as increase in intracellular calcium flux after 2.5 hrs measured over 3 mins by calcium 4 dye-based FLIPR assay relative to linoleic acid; assay type: functional, cell-based; set-up: concentration or dose not given beside the values
Sequence (O14842 whole entry): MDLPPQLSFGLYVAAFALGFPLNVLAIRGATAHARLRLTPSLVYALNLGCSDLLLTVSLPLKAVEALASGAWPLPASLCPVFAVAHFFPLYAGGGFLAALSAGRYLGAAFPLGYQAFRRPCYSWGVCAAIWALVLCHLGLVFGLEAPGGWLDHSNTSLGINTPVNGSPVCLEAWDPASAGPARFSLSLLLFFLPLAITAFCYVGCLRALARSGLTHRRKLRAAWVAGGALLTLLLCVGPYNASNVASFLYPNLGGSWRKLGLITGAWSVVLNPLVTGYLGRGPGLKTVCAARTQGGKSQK
Could you please report measured Activity for the items listed next?
Numbers only, in %.

• CC#C[C@@H](CC(=O)O)c1ccc(OCc2ccc3nc(-c4ccc(OCCOC)cc4)nn3c2)cc1 = 74
• CC#C[C@@H](CC(=O)O)c1ccc(OCc2ccc3nc(-c4c(C)cccc4C)nn3c2)cc1 = 54

Turning to the following compound.
**Query** Which Activity value belongs to `CC#C[C@@H](CC(=O)O)c1ccc(OCc2ccc3nc(-c4ccc(C#N)cc4)nn3c2)cc1` ?
**Result** 65
